# protocol: ATG_TAL_CIS: Attagene CIS-FACTORIAL HepG2 Assay for human TAL Basal Promoter (AID 2282966);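 further: background control endpoint measuring basal TAL promoter reporter mRNA not a specific factor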
# measurement conditions: HepG2 Attagene cis-factorial TAL promoter reporter; actives raise or lower the signal
The source made the active and inactive calls. How the source made its calls: active means hit-call score of the fitted dose curve at least 0.9, where 1 is the maximum; inactive means score below 0.9.
Write down one outcome, taken from active, inactive

Consider the following illustrative entries.
>  <molecule>
CC(C)OC(=O)c1ccccc1

>  <assigned category>
inactive

$$$$
>  <molecule>
C=C(C)C(=O)OCCCCCCCCCCCC

>  <assigned category>
inactive

$$$$
>  <molecule>
Nc1ccc(C(=O)OCCCOC(=O)c2ccc(N)cc2)cc1

>  <assigned category>
inactive

$$$$

In the following, a different molecule is considered.
[in] # lookup: test call for CC/C=C\C/C=C\C/C=C\CCCCCCCC(=O)OC
[out] inactive

====

# study target: CCAAT/enhancer-binding protein beta (Homo sapiens) (UniProt P17676)
# Sequence (P17676 whole entry, looked up): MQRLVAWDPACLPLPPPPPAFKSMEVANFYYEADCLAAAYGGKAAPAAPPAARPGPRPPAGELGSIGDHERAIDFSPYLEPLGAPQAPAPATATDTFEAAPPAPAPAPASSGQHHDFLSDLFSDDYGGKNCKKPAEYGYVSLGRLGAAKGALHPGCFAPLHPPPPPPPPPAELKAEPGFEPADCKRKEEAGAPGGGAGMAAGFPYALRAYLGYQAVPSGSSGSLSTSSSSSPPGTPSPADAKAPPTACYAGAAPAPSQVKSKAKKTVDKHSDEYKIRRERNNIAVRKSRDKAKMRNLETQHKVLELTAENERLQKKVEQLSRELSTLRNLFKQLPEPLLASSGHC
# protocol: ATG_C_EBP_CIS: Attagene CIS-FACTORIAL HepG2 Assay for human CCAAT/Enhancer Binding Protein (C/EBP) beta (AID 2282927)
# measurement conditions: HepG2 Attagene cis-factorial transcription factor reporter; actives raise or lower the signal
Active and inactive are the calls of the source. The calls were made as follows: active = hit-call score of the fitted dose curve at least 0.9, where 1 is the maximum; inactive = score below 0.9.
Write down one outcome, taken from active, inactive

Consider the following illustrative entries.
>  <molecule>
CCCCC/C=C\C/C=C\CCCCCCCC(=O)O

>  <assigned category>
inactive

$$$$
>  <molecule>
CC(C)[N+](C)(CCOC(=O)C1c2ccccc2Oc2ccccc21)C(C)C

>  <assigned category>
inactive

$$$$
>  <molecule>
CC(=O)C(C)C

>  <assigned category>
inactive

$$$$
>  <molecule>
CC1(C)CCC[C@]2(C)[C@H]3CC(=O)O[C@]3(C)CC[C@@H]12

>  <assigned category>
inactive

$$$$
>  <molecule>
CCCCCCCCCCCCCCCCCCOS(=O)(=O)O

>  <assigned category>
inactive

$$$$

[in] # lookup: test call for CC(C)COC(=O)CC(C(=O)OCC(C)C)S(=O)(=O)O (centres undefined)
[out] inactive

[in] C=CC(=O)O[C@H]1C[C@@H]2CC[C@@]1(C)C2(C)C ?
[out] inactive

====

# study target: Nuclear receptor subfamily 4 group A member 2 (Homo sapiens) (UniProt P43354)
# Sequence (P43354 whole entry, looked up): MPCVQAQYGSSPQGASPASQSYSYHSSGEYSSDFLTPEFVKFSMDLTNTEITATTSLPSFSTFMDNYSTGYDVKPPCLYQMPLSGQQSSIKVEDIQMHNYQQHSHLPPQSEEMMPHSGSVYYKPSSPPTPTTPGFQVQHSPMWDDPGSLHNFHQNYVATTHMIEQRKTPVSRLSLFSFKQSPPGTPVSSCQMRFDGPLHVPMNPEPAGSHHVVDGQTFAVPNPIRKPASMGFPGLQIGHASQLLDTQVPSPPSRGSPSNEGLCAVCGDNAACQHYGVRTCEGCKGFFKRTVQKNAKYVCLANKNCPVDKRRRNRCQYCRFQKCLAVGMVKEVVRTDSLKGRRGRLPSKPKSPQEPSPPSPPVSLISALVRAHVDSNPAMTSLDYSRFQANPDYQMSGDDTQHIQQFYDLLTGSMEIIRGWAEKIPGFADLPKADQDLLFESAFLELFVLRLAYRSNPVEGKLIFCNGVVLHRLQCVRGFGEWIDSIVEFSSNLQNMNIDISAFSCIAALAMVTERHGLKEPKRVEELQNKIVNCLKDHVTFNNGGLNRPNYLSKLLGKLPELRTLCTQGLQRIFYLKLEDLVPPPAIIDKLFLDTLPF
# protocol: ATG_NURR1_TRANS: Attagene TRANS-FACTORIAL HepG2 Assay for human Nuclear Receptor Related Protein 1 (NURR1) (AID 2282985)
# measurement conditions: HepG2 Attagene TRANS reporter, mRNA readout
Inconclusive results are not listed. Calls of active or inactive are those of the source. Rule for the calls: active = hit-call score of the fitted dose curve at least 0.9, where 1 is the maximum; inconclusive = response in the unintended direction; inactive = score below 0.9.
Write down one outcome, taken from active, inactive

>  <compound>
CCCCOC(=O)CCC(C)=O

>  <study target>
Nuclear receptor subfamily 4 group A member 2 (Homo sapiens) (UniProt P43354)

>  <assigned category>
inactive

$$$$
>  <compound>
C=C[C@@]1(C)CC(=O)[C@]2(O)[C@@]3(C)[C@@H](O)CCC(C)(C)[C@@H]3[C@H](O)[C@H](OC(C)=O)[C@@]2(C)O1

>  <study target>
Nuclear receptor subfamily 4 group A member 2 (Homo sapiens) (UniProt P43354)

>  <assigned category>
inactive

$$$$

In the following, a different compound is considered.
[in] # lookup: test call for CCCC=C(C=O)CC
[out] inactive

====

# protocol: ATG_EGR_CIS: Attagene CIS-FACTORIAL HepG2 Assay for human Early Growth Response 1 (EGR1) (AID 2282938)
# measurement conditions: HepG2 Attagene CIS-FACTORIAL EGR reporter mRNA; actives raise or lower the signal
Calls of active or inactive are those of the source. Rule for the calls: active = hit-call score of the fitted dose curve at least 0.9, where 1 is the maximum; inactive = score below 0.9.
observed property: AC50

>  <compound>
CCCCC/C=C\C/C=C\CCCCCCCC(=O)O

>  <recorded value>
72.5 µM (active)

$$$$
>  <compound>
CC1CCC(=O)C1=O (stereo not given)

>  <recorded value>
inactive

$$$$
>  <compound>
C=C[Si](OCCOC)(OCCOC)OCCOC

>  <recorded value>
inactive

$$$$
>  <compound>
Cc1ccc2c(c1)CCCN2

>  <recorded value>
inactive

$$$$
>  <compound>
CC(=O)c1ccc(S(=O)(=O)NC(=O)NC2CCCCC2)cc1

>  <recorded value>
inactive

$$$$
>  <compound>
Cc1ccc(S(=O)(=O)N=C=O)cc1

>  <recorded value>
inactive

$$$$
>  <compound>
C=CC(=O)NCOCCCC

>  <recorded value>
inactive

$$$$
>  <compound>
CC(C)c1cccc(C(C)C)c1N

>  <recorded value>
inactive

$$$$
>  <compound>
C=CCNCC=C

>  <recorded value>
inactive

$$$$
>  <compound>
CC1CCC(C(C)(C)S)C(=O)C1 (stereo not given)

>  <recorded value>
inactive

$$$$

We next turn to a different compound, shown below.
[in] Which AC50 reading was recorded for the compound CCCCCCCC(=O)OCC(COC(=O)CCCCCCC)OC(=O)CCCCCCC ?
[out] inactive

Source listed as PubChem BioAssay (EPA / NIEHS).
